METHOD_NOTES: Pharmacokinetics in mice, single IP injection
Assay type: in vivo
CONDITION_PARAMETERS: Nude, mouse, plasma, intraperitoneal, 50 mg/kg, 50 mg/kg IP, 3 h, individual animals
MEASURE_NAME: concentration at 3 h
State the result as a value with its unit after it.

(Q) Data request, read-out concentration at 3 h, for Cc1ncsc1-c1ccc([C@H](C)NC(=O)[C@@H]2C[C@@H](O)CN2C(=O)[C@@H](NC(=O)CCCCCCCCCN2CCN(C(=O)CCCCCC3(CN)CCN(c4cnc(Sc5cccc(Cl)c5Cl)c(N)n4)CC3)CC2)C(C)(C)C)cc1
(A) 1030 nM
